biological target: Sirtuin 2 (Homo sapiens, UniProt Q8IXJ6); assay: HDAC enzyme assay, Sirtuin 2; format: biochemical; details: sirtuin 2, text (minimal activity)
Sequence (Q8IXJ6 whole entry): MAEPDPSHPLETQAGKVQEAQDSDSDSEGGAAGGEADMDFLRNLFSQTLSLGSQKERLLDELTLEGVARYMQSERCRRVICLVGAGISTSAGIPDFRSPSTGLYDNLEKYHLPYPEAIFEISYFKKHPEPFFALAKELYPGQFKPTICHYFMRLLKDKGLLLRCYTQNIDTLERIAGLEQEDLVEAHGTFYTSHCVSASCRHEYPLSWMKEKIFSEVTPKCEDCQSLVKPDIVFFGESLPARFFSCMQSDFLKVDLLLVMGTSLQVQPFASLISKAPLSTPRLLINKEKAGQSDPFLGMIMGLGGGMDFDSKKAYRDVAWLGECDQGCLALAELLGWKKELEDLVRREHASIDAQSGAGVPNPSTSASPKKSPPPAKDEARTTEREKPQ
observable: IC50

Sample O=C(CCCCCCNC(=O)c1cnc(N(c2ccccc2)c2ccccc2)nc1)NO — what was its IC50? > 1000 nM

* * *

molecular target: Sirtuin 1 (Homo sapiens, UniProt Q96EB6); assay: HDAC enzyme assay, Sirtuin 1; assay type: biochemical; details: sirtuin 1, text (minimal activity)
Sequence (Q96EB6 whole entry): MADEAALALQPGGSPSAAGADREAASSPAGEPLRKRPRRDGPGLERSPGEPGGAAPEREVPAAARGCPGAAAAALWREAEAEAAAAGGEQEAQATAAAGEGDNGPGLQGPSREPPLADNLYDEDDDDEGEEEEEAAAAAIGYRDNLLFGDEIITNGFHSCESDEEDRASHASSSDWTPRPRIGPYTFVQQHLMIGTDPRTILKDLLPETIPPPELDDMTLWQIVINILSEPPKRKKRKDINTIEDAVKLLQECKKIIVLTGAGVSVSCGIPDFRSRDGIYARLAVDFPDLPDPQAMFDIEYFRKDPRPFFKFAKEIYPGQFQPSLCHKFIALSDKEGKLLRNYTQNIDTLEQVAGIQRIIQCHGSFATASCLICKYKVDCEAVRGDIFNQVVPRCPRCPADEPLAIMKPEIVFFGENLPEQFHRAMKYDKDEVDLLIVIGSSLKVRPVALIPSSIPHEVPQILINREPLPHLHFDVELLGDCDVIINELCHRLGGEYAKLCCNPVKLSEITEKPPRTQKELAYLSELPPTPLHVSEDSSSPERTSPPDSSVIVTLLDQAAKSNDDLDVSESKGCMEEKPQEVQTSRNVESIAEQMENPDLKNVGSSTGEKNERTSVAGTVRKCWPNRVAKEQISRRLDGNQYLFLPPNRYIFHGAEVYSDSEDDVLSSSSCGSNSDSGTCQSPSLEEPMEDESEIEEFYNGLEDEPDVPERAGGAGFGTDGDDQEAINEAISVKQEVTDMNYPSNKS
pIC50: −log10 of the molar value.
observable: pIC50

Request - read-out pIC50 | tested on Sirtuin 1 (Homo sapiens, UniProt Q96EB6) | compound O=C(CCCCCCNC(=O)c1cnc(N(c2ccccc2)c2ccccc2)nc1)NO < 6.00
